- Measured target: Indoleamine 2,3-dioxygenase 1 (Homo sapiens, UniProt P14902)
- Sequence (P14902 whole entry): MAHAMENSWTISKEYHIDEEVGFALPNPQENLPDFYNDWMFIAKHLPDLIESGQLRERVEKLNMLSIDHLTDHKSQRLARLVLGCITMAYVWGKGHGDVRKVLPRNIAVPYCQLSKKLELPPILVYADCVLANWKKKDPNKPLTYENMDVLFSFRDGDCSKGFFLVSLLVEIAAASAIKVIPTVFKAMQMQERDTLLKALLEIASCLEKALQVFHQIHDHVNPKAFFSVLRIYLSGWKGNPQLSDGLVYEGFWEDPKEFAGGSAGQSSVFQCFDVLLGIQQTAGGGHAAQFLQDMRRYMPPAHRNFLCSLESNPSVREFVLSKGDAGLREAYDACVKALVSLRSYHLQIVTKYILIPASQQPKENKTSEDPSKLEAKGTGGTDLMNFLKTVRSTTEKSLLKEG
- Procedure details: Inhibition of IDO1 in human SKOV3 cells
- Format: cell-based, SK-OV-3
The following ranges of IC50 define the classes used here: bucket 1 (below 50 nM), bucket 2 (50 nM to below 300 nM), bucket 3 (300 nM or more)

Record excerpt, results attached:
{"Molecule": "O=C(Nc1ccc(C(F)(F)F)cc1)C(=O)N1CCC(c2ccnc3ccc(F)cc23)CC1", "Assigned label": "bucket 2"}
{"Molecule": "O=C(Nc1ccc(Cl)cc1F)C(=O)N1CCC(c2ccnc3ccc(F)cc23)CC1", "Assigned label": "bucket 1"}
{"Molecule": "O=C(Nc1ccc(Cl)cn1)C(=O)N1CCC(c2ccnc3ccnn23)CC1", "Assigned label": "bucket 3"}
{"Molecule": "O=C(Nc1ccc(Cl)cn1)C(=O)N1CCC(c2ccnc3ccc(F)cc23)CC1", "Assigned label": "bucket 2"}
{"Molecule": "O=C(Nc1ccc(Cl)cc1)C(=O)N1CCC(c2ccnc3ccc(Cl)cc23)CC1", "Assigned label": "bucket 1"}
{"Molecule": "N#Cc1ccc2nccc(C3CCN(C(=O)C(=O)Nc4ccc(Cl)cc4)CC3)c2c1", "Assigned label": "bucket 2"}
{"Molecule": "O=C(Nc1ccc(Cl)cc1)C(=O)N1CCCC2(CC1)COc1cc(C(F)(F)F)ccc12 (stereo unspecified)", "Assigned label": "bucket 3"}
{"Molecule": "O=C(/C(=N/O)Nc1ccc(F)c(Cl)c1)N1CCC(c2ccccc2)CC1", "Assigned label": "bucket 3"}

Turning now to a further molecule:
Just checking, what class would you give O=C(Nc1ccc(Cl)cc1)C(=O)N1CCC(c2ccnc3cc(F)ccc23)CC1 here?
bucket 1

====

- Procedure details: Metabolic stability in mouse liver microsomes assessed as intrinsic clearance
- Assay type: ADME, Microsome
- Setup conditions: read-out: CLH
Property: microsomal CLint (µL/min/mg)
The reply should contain only the number, in µL/min/mg.

What does the record list as microsomal CLint for O=C(Nc1ccc(C(F)F)cc1)C(=O)N1CCC(c2ccnc3ccc(F)cc23)CC1 ?
76

====

Consider the following compounds and their measured IC50 readings.
- Measured target: Indoleamine 2,3-dioxygenase 1 (Homo sapiens, UniProt P14902)
- Procedure details: Inhibition of IDO1 in human SKOV3 cells
- Type: cell-based, SK-OV-3
Kindly provide the numeric value in nM only, without the unit symbol.

// returns reported IC50 for input O=C(Nc1ccc(Cl)cc1)C(=O)N1CCC2(CC1)COc1cc(C(F)F)ccc12
30

Name the reported IC50 value associated with the compound O=C(Nc1ccc(Cl)cc1)C(=O)N1CCC(c2ccnc3ccc(F)cc23)C(F)(F)C1 (racemic)
9

Need IC50, item O=C(Nc1ccc(Cl)cc1)C(=O)N1CC[C@H](c2ccnc3ccc(F)cc23)[C@H](O)C1 (stereo in doubt)
110

Entry O=C(Nc1ccc(Cl)cc1F)C(=O)N1CCC=C(c2ccnc3ccc(F)cc23)CC1 has what IC50?
5

====

- Measured target: Tryptophan 2,3-dioxygenase (Homo sapiens, UniProt P48775)
- Sequence (P48775 whole entry): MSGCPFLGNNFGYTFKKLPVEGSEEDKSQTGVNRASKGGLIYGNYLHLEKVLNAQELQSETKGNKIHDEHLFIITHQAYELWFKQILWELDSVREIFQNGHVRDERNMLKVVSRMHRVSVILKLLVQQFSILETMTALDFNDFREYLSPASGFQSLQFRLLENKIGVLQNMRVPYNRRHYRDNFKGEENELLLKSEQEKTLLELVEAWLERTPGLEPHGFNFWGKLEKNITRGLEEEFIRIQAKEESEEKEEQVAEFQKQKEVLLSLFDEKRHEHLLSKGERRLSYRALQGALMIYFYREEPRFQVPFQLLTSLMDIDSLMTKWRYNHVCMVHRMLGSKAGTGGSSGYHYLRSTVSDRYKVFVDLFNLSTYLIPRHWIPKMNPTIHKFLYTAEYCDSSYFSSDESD
- Procedure details: Inhibition of TDO in HEK cells
// reported IC50 per item
Field: numeric (µM). Do not append units.

{"Compound": "O=C(Nc1ccc(Cl)cc1)C(=O)N1CCC2(CC1)COc1cc(C(F)F)ccc12", "Units symbol": "µM", "IC50": 30}
{"Compound": "O=C(Nc1ccc(Cl)cc1F)C(=O)N1CCCC(c2ccnc3ccc(F)cc23)CC1 (racemic)", "Units symbol": "µM", "IC50": 5.9}
{"Compound": "O=C(Nc1ccc(Cl)cn1)C(=O)N1CCC(c2ccnc3ccc(F)cc23)CC1", "Units symbol": "µM", "IC50": 5.9}

Please look up its IC50: N#Cc1ccc(NC(=O)C(=O)N2CCC(c3ccnc4ccc(F)cc34)CC2)cc1
5.5

What value of IC50 has been recorded for this entry: N#Cc1ccc2nccc(C3CCN(C(=O)C(=O)Nc4ccc(Cl)cc4)CC3)c2c1
6.1

Item O=C(Nc1ccc(Cl)cc1)C(=O)N1CCCC2(CC1)COc1cc(C(F)(F)F)ccc12 (stereo not drawn) has what recorded IC50?
37

Given the entry O=C(Nc1ccc(Cl)cc1)C(=O)N1CC[C@H](c2ccnc3ccc(F)cc23)[C@H](O)C1 (stereo in doubt) , report its measured IC50.
17.2

Any idea what its IC50 is? The compound is O=C(Nc1ccc(Cl)cc1)C(=O)N1CCC(c2ccnc3ccc(Cl)cc23)CC1
2.5

I would be grateful if you could share the reported IC50 for O=C(Nc1ccc(Cl)cn1)C(=O)N1CCC2(CC1)COc1cc(C(F)(F)F)ccc12 .
6.4

Requested read-out: IC50. Entry: CC1(C)CN(C(=O)C(=O)Nc2ccc(Cl)cc2)CCC1c1ccnc2ccc(F)cc12 (racemic)
4.5

Which IC50 reading was recorded for the compound O=C(Nc1ccc(Cl)cc1)C(=O)N1CCC(c2ccnc3ccc(F)cc23)CC1 ?
6.9

Recorded IC50 for O=C(Nc1ccc(Cl)cc1)C(=O)N1CCC2(CC1)COc1cc(C(F)(F)F)ccc12 , please?
21

Can you look up the measured IC50 of O=C(Nc1ccc(Cl)cc1F)C(=O)N1CCC=C(c2ccnc3ccc(F)cc23)CC1 for me?
16

// provenance: ChEMBL document CHEMBL4673373
